B1: TPR 5TU (parent)
chain: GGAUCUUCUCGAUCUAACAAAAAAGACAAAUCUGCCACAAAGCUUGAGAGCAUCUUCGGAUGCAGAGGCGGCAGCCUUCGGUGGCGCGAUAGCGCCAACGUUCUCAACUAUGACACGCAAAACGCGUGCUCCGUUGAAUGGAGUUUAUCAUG

- Variants of: B1
- ASSAY OVERVIEW: polymerase ribozyme fitness, log enrichment relative to wild type (log ratio); higher = more active; in vitro selection for triplet polymerase activity
This sample holds only a part of the variants without activity.
EXPERIMENTAL ENDPOINT: polymerase ribozyme fitness (log ratio)

| MUTATION CODE | RELATION QUALIFIER | READOUT NUMBER |
| --- | --- | --- |
| A113U C116U | = | -1.33 |
| C36A C85U A98G C125A | ≤ | -4.2 |
| G71U A73U A97G U145G | ≤ | -4.2 |
| A19U G50U | = | -0.0269 |
| G68A C72A G80C G94A | ≤ | -4.2 |
| C125G | = | -0.473 |
| A17U G94A | = | -1.24 |
| C35U G86A C105A A137U | ≤ | -4.2 |
| C96U C125U | = | -0.382 |
| A3G U9G C36A G67A G68C A73G U135G | ≤ | -4.2 |

Value source: the RNAGym collection of RNA variant scans (doi:10.1073/pnas.2313332121)
